Attribution: the OPERA property sets (Mansouri et al. 2018)

Readings of logP for the listed compounds

{"columns": ["COMPOUND", "logP"],
 "data": [
  ["CCC(=O)Nc1ccccc1", 1.61],
  ["CC(C)c1ccc(OCC(=O)O)cc1", 2.69],
  ["C=CCN1CC[C@]23CCCC[C@H]2[C@H]1Cc1ccc(O)cc13", 3.48],
  ["CCN(CC)CCNc1ccc(C)c(Cl)c1", 4.14],
  ["CC(=O)Oc1ccc(N)cc1", 0.45],
  ["Nc1ccc(S(=O)(=O)Nc2ccc(Cl)cc2)cc1", 2.71],
  ["O=S(=O)(Cc1ccccc1)c1ccccc1", 2.05],
  ["CCOC(=O)C(F)F", 0.87],
  ["CC(C)C(=O)NC(CO)C(O)c1ccc([N+](=O)[O-])cc1 (centres undefined)", 0.79],
  ["CC(=O)NC1CC(=O)N(c2ccccc2)C1=O (centres undefined)", -0.33],
  ["Oc1c(Cl)cccc1Cl", 2.75],
  ["CCC(C)c1ccc(OCC(=O)O)cc1 (centres undefined)", 3.12],
  ["CC(=O)N(C)N=Nc1ccc(C(N)=O)cc1", 1.37],
  ["CCOc1ccccc1-c1nc(N)nc(N)n1", 1.03]
]}
